- System tested: T1, Glutathione S-transferase (GST)-tagged AITR (human, UniProt Q9Y5U5 26-139)
- T1 construct: also called GST-AITR antigen; GST-AITR analyte; not shown: Glutathione S-transferase (GST) tag
- T1 sequence (looked up): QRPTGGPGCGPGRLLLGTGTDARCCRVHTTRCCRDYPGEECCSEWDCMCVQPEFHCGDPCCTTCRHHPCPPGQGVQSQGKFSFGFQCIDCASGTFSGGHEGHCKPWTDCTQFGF
- Experiment description: KD ratio against parental IRTCA-A, repeated from the SPR of Table 3
Measured parameter: KD Ratio (fold)
Output spec: scalar in fold, unitless text.

Some solved cases for reference:
# Binder, Measured parameter, Readout units, Number
measured = [
    ("IRTCA-A15 (Clone H1F1) Fab (Fab, V domains shown) VH: QVQLVQSGTQVKMPGASVKVSCKASGYTFDDYGIGWVRQAPGQGLEWMGWISPYTHRTNSSPKLQDRVTMTTDTSTSTAYMELRSLRSDDTAVYYCARDGTYYDFWSGYFDNNAFDIWGQGTLVTVSS VL: QSVVTQPPSVSAAPGQKVTISCSGSTSNIGNNYVSWYQQLPGTAPKLLIYDNYKRPSGIPDRFSGSKSGTSATLGITGLRTGDEADYFCGTWDSSLNAWVFGGGTKLTVL", "KD Ratio", "fold", 44.4),
    ("Parental IRTCA-A Fab (Fab, V domains shown) VH: QVQLVQSGTQVKMPGASVKVSCKASGYTFDDYGIGWVRQAPGQGLEWMGWISPYTHRTNSSPKLQDRVTMTTDTSTSTAYMELRSLRSDDTAVYYCARDGTYYDFWSGYFDNGAFDIWGQGTLVTVSS VL: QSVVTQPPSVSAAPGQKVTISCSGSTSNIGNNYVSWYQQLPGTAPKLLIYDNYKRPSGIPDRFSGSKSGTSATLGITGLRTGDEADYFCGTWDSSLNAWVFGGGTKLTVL", "KD Ratio", "fold", 1),
]

Now examine the next entry.
Briefly, KD Ratio measured for IRTCA-A14 (Clone H2F8) Fab (Fab, V domains shown) VH: QVQLVQSGTQVKMPGASVKVSCKASGYTFDDYGIGWVRQAPGQGLEWMGWISPYTHRTNSSPKLQDRVTMTTDTSTSTAYMELRSLRSDDTAVYYCARDGTYYDFWSGYFDTAAFDIWGQGTLVTVSS VL: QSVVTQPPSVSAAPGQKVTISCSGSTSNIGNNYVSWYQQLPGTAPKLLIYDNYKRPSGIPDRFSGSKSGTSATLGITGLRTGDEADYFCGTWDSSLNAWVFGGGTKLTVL : 30.1
